Test system: P388 leukemia ip, CD2F1 mice, survival T/C
Test: NCI In Vivo Anticancer Drug Screen. Data for tumor model P388 Leukemia (intraperitoneal) in CD2F1 (CDF1) mice
Conditions: endpoint: median survival time; dose: 100.0 mg/kg/injection; schedule: Q01DX009 (ip); vehicle: water; higher = longer survival
Inconclusive results and toxic doses are left out.
Recorded T/C for the following molecules

See these solved cases before continuing.
molecule	T/C
O=C(N/N=C/c1cccc(O)c1)C(=O)N/N=C/c1cccc(O)c1	100 % of control
COc1cccc2c1C(=O)c1c(O)c3c(c(O)c1C2=O)CC(O)(c1csc(N2CCN(C)CC2)n1)CC3O (centres undefined)	107 % of control
COP(=O)(N/N=C/C(=O)O)OC	96 % of control

Now take the following molecule into account.
Qu. Determine reported T/C for [NH-]C(CO)C(=O)O.[NH-]C(CO)C(=O)O.[Pt+2] (centres undefined) ; test system: P388 leukemia ip, CD2F1 mice, survival T/C.
Ans. 115 % of control

* * *

Test system: P388 leukemia ip, CD2F1 mice, survival T/C
Experiment: NCI In Vivo Anticancer Drug Screen. Data for tumor model P388 Leukemia (intraperitoneal) in CD2F1 (CDF1) mice
Settings: endpoint: median survival time; dose: 100.0 mg/kg/injection; schedule: Q01DX009 (ip); vehicle: saline with Tween-80; higher = longer survival
Inconclusive results and toxic doses are left out.
valueType: T/C

See these solved cases before continuing.
compound	result
c1ccc(N=P(c2ccccc2)(c2ccccc2)c2ccccc2)cc1	108 % of control
O=C(Nc1ccc(F)cc1)N1c2ccccc2SC12CCCC2	93 % of control
O=[N+]([O-])CC(OCCCCCCO)C(Cl)(Cl)Cl (stereo not given)	95 % of control
CC1CC(C)(C)N=C(C2(c3ccccc3)CC2)O1 (stereo not given)	109 % of control
CCCCC(SC(CC)(C(C)=O)c1ccccc1)C(N)=O (stereo not given)	90 % of control

Qu. Specify measured T/C for `CCCCn1c2nc(=O)[nH]c(=O)c-2cc2ccccc21` .
Ans. 91 % of control

* * *

Recorded T/C for the following compounds
System: P388 leukemia ip, CD2F1 mice, survival T/C
Assay: NCI In Vivo Anticancer Drug Screen. Data for tumor model P388 Leukemia (intraperitoneal) in CD2F1 (CDF1) mice
Conditions: endpoint: median survival time; dose: 100.0 mg/kg/injection; schedule: Q01DX005 (ip); vehicle: saline; higher = longer survival
Toxic doses and inconclusive results are not listed.

See these solved cases before continuing.
compound	result
CCS1=C(C(C)=O)C(=O)OC(C)C1 (stereo not given)	100 % of control
CN1NC(c2ccccc2)NN(C)C1=O	99 % of control
C[Si](C)(C)CN1CCCC1	101 % of control

Qu. Specify measured T/C for N#CC1(OC2OC(CO)C(O)C(O)C2O)C=CC(OS(=O)(=O)O)C1 (stereo not given) .
Ans. 116 % of control

Qu. Specify measured T/C for `CCN(CC)CCNC(=O)C(=O)NCCN(CC)CC` .
Ans. 99 % of control

Qu. Specify measured T/C for `CCN(CC)CCSS(=O)(=O)CCN(CC)CC` .
Ans. 109 % of control

Qu. Specify measured T/C for COC1C(/C=[N+](\C)[O-])OC2OC(C)(C)OC21 (stereo not given) .
Ans. 100 % of control

Qu. Specify measured T/C for CSCCC(NC=O)C(=O)O (stereo not given) .
Ans. 98 % of control

Qu. Specify measured T/C for `CN(C/C(=N/O)c1ccccc1)C(=O)c1ccccc1` .
Ans. 100 % of control

Qu. Specify measured T/C for `CCN(CC)CCNc1cc(OC)c(C)c2cccnc12` .
Ans. 109 % of control

* * *

System: P388 leukemia ip, CD2F1 mice, survival T/C
Experiment: NCI In Vivo Anticancer Drug Screen. Data for tumor model P388 Leukemia (intraperitoneal) in CD2F1 (CDF1) mice
Details: endpoint: median survival time; dose: 25.0 mg/kg/injection; schedule: Q01DX009 (ip); vehicle: saline with Tween-80
Method: The antitumor activity of compounds was measured in mice bearing transplantable tumors. Survival or tumor size were measured and the results are expressed as the measurement made in the treated group (T) divided by the measurement made in the vehicle treated control group (C). The tumor model used in this assay is P388 Leukemia (intraperitoneal) in CD2F1 (CDF1) mice
Toxic doses and inconclusive results are not listed. Rule for the calls: active = survival T/C of 150% or more; inactive = T/C below 125% in these data.
The reply should name one outcome from t (active), f (inactive)

Some solved cases for reference:
compound	qualitativeLabel
CC(C)=CCC1=C(OC2OC(CO)C(O)C(O)C2O)C(=O)c2ccccc2C1=O (stereo not drawn)	f
Cn1c([N+](=O)[O-])cnc1/C=C1\CCc2cc(OCCN3CCCC3)ccc2C1=O	f

Now look at this one.
Qu. Entry Nc1ncnc2c1cnn2C1OC(CO)C(O)C1O (stereo not drawn) : call = ?
Ans. t

* * *

System: P388 leukemia ip, CD2F1 mice, survival T/C
Assay: NCI In Vivo Anticancer Drug Screen. Data for tumor model P388 Leukemia (intraperitoneal) in CD2F1 (CDF1) mice
Conditions: endpoint: median survival time; dose: 12.5 mg/kg/injection; schedule: Q01DX005 (ip); vehicle: Klucel (hydroxypropylcellulose) (HPC); higher = longer survival
Protocol: The antitumor activity of compounds was measured in mice bearing transplantable tumors. Survival or tumor size were measured and the results are expressed as the measurement made in the treated group (T) divided by the measurement made in the vehicle treated control group (C). The tumor model used in this assay is P388 Leukemia (intraperitoneal) in CD2F1 (CDF1) mice
Toxic doses and inconclusive results are not listed.
valueType: T/C

See these solved cases before continuing.
molecule	valueType	result
CN(C)N=Nc1ccc(C(=O)NC(Cc2ccccc2)C(=O)O)cc1 (centres undefined)	T/C	100 % of control
Nc1cc(Cl)c(N(CCO)C2=NCCN2)c(Cl)c1	T/C	92 % of control
Cc1ccc(-c2nnc3cc(C)n4nnnc4n23)cc1	T/C	108 % of control
C=CCC1=C(C2CO2)C(=O)c2ccccc2C1=O (centres undefined)	T/C	99 % of control
O=C(OCc1ccccc1)C(Cc1c[nH]c2ccccc12)n1cnc2ccccc2c1=O (centres undefined)	T/C	97 % of control

Qu. Specify measured T/C for `COc1cc2c[n+](C)c3c4cc(OC)c(OCc5ccccc5)cc4c(OCc4ccccc4)cc3c2cc1OC` .
Ans. 98 % of control

Qu. Specify measured T/C for `Cc1cc(O)c2c(c1)C(=O)c1c(c(O)cc(O)c1-c1c(O)cc(O)c3c1C(=O)c1cc(C)cc(O)c1C3=O)C2=O` .
Ans. 91 % of control

Qu. Specify measured T/C for [Cl][Pd][Cl].[NH-]C(CC(N)=O)C(=O)O (centres undefined) .
Ans. 101 % of control

Qu. Specify measured T/C for `CCC[C@H]1N=C(OCC)N[C@@H]1CCC` .
Ans. 117 % of control

* * *

Recorded T/C for the following molecules
System: P388 leukemia ip, CD2F1 mice, survival T/C
Test: NCI In Vivo Anticancer Drug Screen. Data for tumor model P388 Leukemia (intraperitoneal) in CD2F1 (CDF1) mice
Conditions: endpoint: median survival time; dose: 50.0 mg/kg/injection; schedule: Q01DX005 (ip); vehicle: saline with Tween-80; higher = longer survival
Inconclusive results and toxic doses are left out.

molecule	T/C
CSCCCNC(=O)c1csc(-c2csc(CCNC(=O)[C@@H](NSc3ccccc3[N+](=O)[O-])[C@@H](C)O)n2)n1	87 % of control
O=C(O)CCCC1CCCCC1.[Mn]	116 % of control
Cc1ccc2ccccc2[n+]1CC(=O)c1ccc([N+](=O)[O-])cc1	96 % of control
CC12C(=O)OC(=O)C1CCc1c2ccc2ccccc12 (stereo unspecified)	107 % of control
O=C1CN(C(=O)Nc2ccccc2)c2ccccc2N1	92 % of control
CC1=Nc2ccccc2OC2(C1)C(C1COC(C)(C)O1)OC1OC(C)(C)OC12 (stereo unspecified)	99 % of control

Qu. Specify measured T/C for `O=C(O)CNC(=O)C1(N2C(=O)c3ccccc3C2=O)CCCC1` .
Ans. 99 % of control

Qu. Specify measured T/C for `CCOC(=O)c1ccc2c(=O)[nH]nc(CO)c2c1` .
Ans. 104 % of control

Qu. Specify measured T/C for CC1(C)OC2OC(COC(=O)c3ccccc3)C(OS(C)(=O)=O)C2O1 (stereo unspecified) .
Ans. 103 % of control

Qu. Specify measured T/C for `CN(C)CCCCNc1c2c(nc3c(Cl)cccc13)CCC2` .
Ans. 99 % of control

Qu. Specify measured T/C for `O=c1[nH]cnc2ccc3[nH]ncc3c12` .
Ans. 92 % of control

* * *

Tested on: P388 leukemia ip, CD2F1 mice, survival T/C
Experiment: NCI In Vivo Anticancer Drug Screen. Data for tumor model P388 Leukemia (intraperitoneal) in CD2F1 (CDF1) mice
Details: endpoint: median survival time; dose: 120.0 mg/kg/injection; schedule: Q01DX005 (ip); vehicle: Klucel (hydroxypropylcellulose) (HPC); higher = longer survival
Procedure: The antitumor activity of compounds was measured in mice bearing transplantable tumors. Survival or tumor size were measured and the results are expressed as the measurement made in the treated group (T) divided by the measurement made in the vehicle treated control group (C). The tumor model used in this assay is P388 Leukemia (intraperitoneal) in CD2F1 (CDF1) mice
Inconclusive results and toxic doses are left out.
Recorded T/C for the following molecules

molecule	result
Cn1ncc2c(Nc3ccc(F)cc3)c3ccccc3nc21	95 % of control

Qu. Specify measured T/C for `c1cnc(NC(Nc2ncccn2)C2CCCCC2)nc1` .
Ans. 100 % of control

Qu. Specify measured T/C for `Cc1cc2c(=O)cc(-c3ccc([N+](=O)[O-])cc3)oc2c(C#N)c1C` .
Ans. 94 % of control

Qu. Specify measured T/C for `Cc1nc2sccn2c1C(N)=O` .
Ans. 97 % of control

Qu. Specify measured T/C for `S=C1N(c2ccccc2)CCN1c1ccccc1` .
Ans. 100 % of control

Qu. Specify measured T/C for `Cc1cc(NC(=O)COCC(=O)O)no1` .
Ans. 101 % of control

Qu. Specify measured T/C for C=C1C(C2=[N+]([O-])CCN2O)OC2OC(C)(C)OC12 (configuration not stated) .
Ans. 101 % of control

Qu. Specify measured T/C for `CCOc1ccccc1N=Nc1c(C)nn(C(N)=S)c1OCC` .
Ans. 116 % of control

Qu. Specify measured T/C for `COc1cccc2c1C(=O)c1nccc3cc4c(c-2c13)OCO4` .
Ans. 110 % of control

Qu. Specify measured T/C for O=C1C2=C(Nc3cc([N+](=O)[O-])ccc3N2)OC1c1ccccn1 (configuration not stated) .
Ans. 121 % of control

Qu. Specify measured T/C for `CCOC(=O)c1c(C)noc1NC` .
Ans. 101 % of control

Qu. Specify measured T/C for `FC(F)(F)c1nc(SCc2ccc(Cl)cc2)n[nH]1` .
Ans. 98 % of control

Where do these numbers come from? They come from PubChem BioAssay AID330.
